# assay-target: METTL3/METTL14 (Homo sapiens, UniProt Q86U44)
# Sequence (Q86U44 whole entry): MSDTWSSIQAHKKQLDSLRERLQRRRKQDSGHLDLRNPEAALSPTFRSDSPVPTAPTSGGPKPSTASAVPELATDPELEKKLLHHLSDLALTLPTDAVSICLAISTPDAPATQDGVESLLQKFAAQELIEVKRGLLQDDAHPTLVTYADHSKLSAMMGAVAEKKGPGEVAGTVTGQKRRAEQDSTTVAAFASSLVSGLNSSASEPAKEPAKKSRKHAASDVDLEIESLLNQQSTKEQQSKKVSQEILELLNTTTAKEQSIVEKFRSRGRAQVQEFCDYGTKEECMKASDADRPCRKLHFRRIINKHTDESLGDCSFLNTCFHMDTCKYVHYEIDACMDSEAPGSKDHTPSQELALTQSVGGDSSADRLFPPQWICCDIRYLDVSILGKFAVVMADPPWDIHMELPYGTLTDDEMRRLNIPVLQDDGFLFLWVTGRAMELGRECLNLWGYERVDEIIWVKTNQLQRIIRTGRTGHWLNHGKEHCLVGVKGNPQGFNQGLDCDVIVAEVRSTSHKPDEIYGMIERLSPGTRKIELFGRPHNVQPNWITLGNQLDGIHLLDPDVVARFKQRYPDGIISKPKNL
# Sequence (Q9HCE5 whole entry, further chain): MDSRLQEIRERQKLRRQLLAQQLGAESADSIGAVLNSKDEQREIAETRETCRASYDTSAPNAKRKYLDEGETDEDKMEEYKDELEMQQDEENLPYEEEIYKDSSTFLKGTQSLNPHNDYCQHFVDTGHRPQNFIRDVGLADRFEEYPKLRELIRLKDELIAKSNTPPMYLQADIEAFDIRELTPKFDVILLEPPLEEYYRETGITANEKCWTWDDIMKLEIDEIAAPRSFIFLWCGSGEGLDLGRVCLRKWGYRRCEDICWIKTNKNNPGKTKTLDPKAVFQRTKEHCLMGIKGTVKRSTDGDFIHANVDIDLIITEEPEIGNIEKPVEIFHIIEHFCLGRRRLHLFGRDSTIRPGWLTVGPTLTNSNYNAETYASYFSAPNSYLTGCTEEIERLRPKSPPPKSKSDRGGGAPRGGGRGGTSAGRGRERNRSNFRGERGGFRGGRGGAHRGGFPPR
recorded-endpoint: IC50
Give me the value, and tack the unit on after it.

structure=O=C(NCc1ccc2cc(CCN3CC4(CCC4)C3)[nH]c2c1)c1cc(=O)n2ccccc2n1 recorded_endpoint=IC50 test_result="118 nM"

Quickly give me recorded IC50 for O=C(NCc1ccc2cc(CN3CC(C4CC4)C3)[nH]c2c1)c1cc(=O)n2ccccc2n1 9.24 nM
